assay.notes: In vivo pharmacokinetic assay in rats
stated.conditions: male, SD, rat, plasma, oral intragastric administration 10 mg/kg
experimental.readout: half-life (min)

>>> reported_measurement("C[C@H](Cc1cnn[nH]1)OCC(=O)N1Cc2cnc(NC3Cc4ccccc4C3)nc2C1")
154

----------
assay.notes: Hygroscopicity by dynamic vapor sorption (DVS)
Format: physicochemical
stated.conditions: hygroscopicity evaluation
Counter-ions that a name gives are not always drawn.
experimental.readout: Risk evaluation

>>> reported_measurement("C[C@H](Cc1cnn[nH]1)OCC(=O)N1Cc2cnc(NC3Cc4ccccc4C3)nc2C1 [Crystal form A of fumarate]")
"None"
>>> reported_measurement("C[C@H](Cc1cnn[nH]1)OCC(=O)N1Cc2cnc(NC3Cc4ccccc4C3)nc2C1 [Crystal form A of benzenesulfonate]")
"None"
>>> reported_measurement("C[C@H](Cc1cnn[nH]1)OCC(=O)N1Cc2cnc(NC3Cc4ccccc4C3)nc2C1 [Free base crystal form A]")
"None"

----------
assay.notes: In vivo pharmacokinetic assay in rats
stated.conditions: male, SD, rat, in vivo, intravenous injection 1 mg/kg
experimental.readout: clearance

>>> reported_measurement("O=C(COCCc1cnn[nH]1)N1Cc2cnc(NC3Cc4ccccc4C3)nc2C1 [Control compound, reference compound]")
"29.3 mL/min/kg"

----------
assay.notes: In vivo pharmacokinetic assay in mice
stated.conditions: male, ICR, mouse, in vivo, intravenous injection 1 mg/kg
experimental.readout: clearance

>>> reported_measurement("O=C(COCCc1cnn[nH]1)N1Cc2cnc(NC3Cc4ccccc4C3)nc2C1 [Control compound, reference compound]")
"57.5 mL/min/kg"

----------
assay.notes: In vivo pharmacokinetic assay in rats
stated.conditions: male, SD, rat, plasma, intravenous injection 1 mg/kg
experimental.readout: half-life

>>> reported_measurement("C[C@H](Cc1cnn[nH]1)OCC(=O)N1Cc2cnc(NC3Cc4ccccc4C3)nc2C1")
"30 min"

----------
assay.notes: Hygroscopicity by dynamic vapor sorption (DVS)
Type: physicochemical
stated.conditions: DVS, 25° C., 80% RH
Counter-ions that a name gives are not always drawn.
experimental.readout: Vapor sorption (25° C./80% RH) (%)

>>> reported_measurement("C[C@H](Cc1cnn[nH]1)OCC(=O)N1Cc2cnc(NC3Cc4ccccc4C3)nc2C1 [Crystal form A of benzenesulfonate]")
1.45
>>> reported_measurement("C[C@H](Cc1cnn[nH]1)OCC(=O)N1Cc2cnc(NC3Cc4ccccc4C3)nc2C1 [Crystal form A of hydrochloride]")
3.85
>>> reported_measurement("C[C@H](Cc1cnn[nH]1)OCC(=O)N1Cc2cnc(NC3Cc4ccccc4C3)nc2C1 [Crystal form A of fumarate]")
0.60
>>> reported_measurement("C[C@H](Cc1cnn[nH]1)OCC(=O)N1Cc2cnc(NC3Cc4ccccc4C3)nc2C1 [Free base crystal form A]")
1.03

----------
assay.notes: In vivo pharmacokinetic assay in mice
stated.conditions: male, ICR, mouse, in vivo, oral intragastric administration 10 mg/kg
experimental.readout: Tmax (min)

>>> reported_measurement("O=C(COCCc1cnn[nH]1)N1Cc2cnc(NC3Cc4ccccc4C3)nc2C1 [Control compound, reference compound]")
15

----------
assay.notes: Thermodynamic solubility assay
Format: physicochemical
stated.conditions: phosphate buffered saline, aqueous buffer, thermodynamic from solid; PBS, pH 7.4, room temperature overnight; read-out: Solubility PBS (pH 7.4)
experimental.readout: solubility (mg/mL)

>>> reported_measurement("C[C@H](Cc1cnn[nH]1)OCC(=O)N1Cc2cnc(NC3Cc4ccccc4C3)nc2C1 [Compound of formula (I)]")
107

----------
assay.notes: In vivo pharmacokinetic assay in rats
stated.conditions: male, SD, rat, in vivo, oral intragastric administration 10 mg/kg
experimental.readout: AUC(0-t) (ng·h/mL)

>>> reported_measurement("O=C(COCCc1cnn[nH]1)N1Cc2cnc(NC3Cc4ccccc4C3)nc2C1 [Control compound, reference compound]")
4870

----------
The entries below are paired with their reported Purity (area %).
assay.notes: Solid stability, 1 week
Assay type: physicochemical
stated.conditions: 25° C./60% RH, HPLC
Structures can show the parent of a compound that is named as a salt.
experimental.readout: Purity (area %)

>>> reported_measurement("C[C@H](Cc1cnn[nH]1)OCC(=O)N1Cc2cnc(NC3Cc4ccccc4C3)nc2C1 [Free base crystal form A]")
98.67
>>> reported_measurement("C[C@H](Cc1cnn[nH]1)OCC(=O)N1Cc2cnc(NC3Cc4ccccc4C3)nc2C1 [Crystal form A of fumarate]")
99.28
>>> reported_measurement("C[C@H](Cc1cnn[nH]1)OCC(=O)N1Cc2cnc(NC3Cc4ccccc4C3)nc2C1 [Crystal form A of benzenesulfonate]")
99.35
>>> reported_measurement("C[C@H](Cc1cnn[nH]1)OCC(=O)N1Cc2cnc(NC3Cc4ccccc4C3)nc2C1 [Crystal form A of hydrochloride]")
96.68

----------
assay.notes: In vivo pharmacokinetic assay in mice
stated.conditions: male, ICR, mouse, plasma, intravenous injection 1 mg/kg
experimental.readout: half-life (min)

>>> reported_measurement("C[C@H](Cc1cnn[nH]1)OCC(=O)N1Cc2cnc(NC3Cc4ccccc4C3)nc2C1 [Compound of formula (I)]")
22.8

----------
assay.notes: Hygroscopicity by dynamic vapor sorption (DVS)
Type: physicochemical
stated.conditions: DVS, 25° C.
Structures can show the parent of a compound that is named as a salt.
experimental.readout: Hygroscopicity

>>> reported_measurement("C[C@H](Cc1cnn[nH]1)OCC(=O)N1Cc2cnc(NC3Cc4ccccc4C3)nc2C1 [Free base crystal form A]")
"Slightly"
>>> reported_measurement("C[C@H](Cc1cnn[nH]1)OCC(=O)N1Cc2cnc(NC3Cc4ccccc4C3)nc2C1 [Crystal form A of fumarate]")
"Slightly"
>>> reported_measurement("C[C@H](Cc1cnn[nH]1)OCC(=O)N1Cc2cnc(NC3Cc4ccccc4C3)nc2C1 [Crystal form A of benzenesulfonate]")
"Slightly"

----------
assay.notes: In vivo pharmacokinetic assay in rats
stated.conditions: male, SD, rat, plasma, intravenous injection 1 mg/kg
experimental.readout: AUC(0-t) (ng·h/mL)

>>> reported_measurement("C[C@H](Cc1cnn[nH]1)OCC(=O)N1Cc2cnc(NC3Cc4ccccc4C3)nc2C1")
3650

----------
assay.notes: Pharmacokinetic assay (crystal form) in mice
Type: in vivo
stated.conditions: male, ICR, mouse, plasma, oral intragastric administration 10 mg/kg
experimental.readout: half-life

>>> reported_measurement("O=C(COCCc1cnn[nH]1)N1Cc2cnc(NC3Cc4ccccc4C3)nc2C1 [Control compound, reference compound]")
"0.83 h"
>>> reported_measurement("C[C@H](Cc1cnn[nH]1)OCC(=O)N1Cc2cnc(NC3Cc4ccccc4C3)nc2C1 [Crystal form A of benzenesulfonate]")
"1.19 h"

----------
assay.notes: In vivo pharmacokinetic assay in rats
stated.conditions: male, SD, rat, plasma, oral intragastric administration 10 mg/kg
experimental.readout: Tmax (min)

>>> reported_measurement("C[C@H](Cc1cnn[nH]1)OCC(=O)N1Cc2cnc(NC3Cc4ccccc4C3)nc2C1")
19.8

----------
assay.system: Autotaxin enzyme (Homo sapiens (Human), UniProt Q13822)
experimental.readout: IC50

>>> reported_measurement("C[C@H](Cc1cnn[nH]1)OCC(=O)N1Cc2cnc(NC3Cc4ccccc4C3)nc2C1 [Compound of formula (I)]")
"1.59 nM"

----------
assay.system: ATX enzymatic activity in human plasma (Homo sapiens (Human), UniProt Q13822)
assay.notes: biochemical
experimental.readout: IC50 (nM)

>>> reported_measurement("C[C@H](Cc1cnn[nH]1)OCC(=O)N1Cc2cnc(NC3Cc4ccccc4C3)nc2C1 [Compound of formula (I)]")
4.7

----------
assay.notes: In vivo pharmacokinetic assay in rats
stated.conditions: male, SD, rat, plasma, oral intragastric administration 10 mg/kg
experimental.readout: AUC(0-t) (ng·h/mL)

>>> reported_measurement("C[C@H](Cc1cnn[nH]1)OCC(=O)N1Cc2cnc(NC3Cc4ccccc4C3)nc2C1")
20700

----------
assay.notes: Thermodynamic solubility assay
Format: physicochemical
stated.conditions: fassgf or other biorelevant, thermodynamic from solid; FaSSGF, pH 1.6, room temperature overnight; read-out: Solubility FaSSGF (pH 1.6)
experimental.readout: solubility (mg/mL)

>>> reported_measurement("O=C(COCCc1cnn[nH]1)N1Cc2cnc(NC3Cc4ccccc4C3)nc2C1 [Control compound, reference compound]")
66.5

----------
assay.notes: In vivo pharmacokinetic assay in mice
stated.conditions: male, ICR, mouse, in vivo, intravenous injection 1 mg/kg
experimental.readout: half-life (min)

>>> reported_measurement("O=C(COCCc1cnn[nH]1)N1Cc2cnc(NC3Cc4ccccc4C3)nc2C1 [Control compound, reference compound]")
20.4

----------
assay.notes: In vivo pharmacokinetic assay in mice
stated.conditions: male, ICR, mouse, in vivo, oral intragastric administration 10 mg/kg
experimental.readout: Cmax

>>> reported_measurement("O=C(COCCc1cnn[nH]1)N1Cc2cnc(NC3Cc4ccccc4C3)nc2C1 [Control compound, reference compound]")
"2040 ng/mL"

----------
assay.notes: In vivo pharmacokinetic assay in mice
stated.conditions: male, ICR, mouse, in vivo, oral intragastric administration 10 mg/kg
experimental.readout: AUC(0-t) (ng·h/mL)

>>> reported_measurement("O=C(COCCc1cnn[nH]1)N1Cc2cnc(NC3Cc4ccccc4C3)nc2C1 [Control compound, reference compound]")
2900
